List of Selectivity SC/CM values.
molecular target: ErbB4 on neonatal rat cardiomyocytes (rat) (UniProt Q62956); experiment: cell-based or functional assay
Sequence (Q62956 26-1308): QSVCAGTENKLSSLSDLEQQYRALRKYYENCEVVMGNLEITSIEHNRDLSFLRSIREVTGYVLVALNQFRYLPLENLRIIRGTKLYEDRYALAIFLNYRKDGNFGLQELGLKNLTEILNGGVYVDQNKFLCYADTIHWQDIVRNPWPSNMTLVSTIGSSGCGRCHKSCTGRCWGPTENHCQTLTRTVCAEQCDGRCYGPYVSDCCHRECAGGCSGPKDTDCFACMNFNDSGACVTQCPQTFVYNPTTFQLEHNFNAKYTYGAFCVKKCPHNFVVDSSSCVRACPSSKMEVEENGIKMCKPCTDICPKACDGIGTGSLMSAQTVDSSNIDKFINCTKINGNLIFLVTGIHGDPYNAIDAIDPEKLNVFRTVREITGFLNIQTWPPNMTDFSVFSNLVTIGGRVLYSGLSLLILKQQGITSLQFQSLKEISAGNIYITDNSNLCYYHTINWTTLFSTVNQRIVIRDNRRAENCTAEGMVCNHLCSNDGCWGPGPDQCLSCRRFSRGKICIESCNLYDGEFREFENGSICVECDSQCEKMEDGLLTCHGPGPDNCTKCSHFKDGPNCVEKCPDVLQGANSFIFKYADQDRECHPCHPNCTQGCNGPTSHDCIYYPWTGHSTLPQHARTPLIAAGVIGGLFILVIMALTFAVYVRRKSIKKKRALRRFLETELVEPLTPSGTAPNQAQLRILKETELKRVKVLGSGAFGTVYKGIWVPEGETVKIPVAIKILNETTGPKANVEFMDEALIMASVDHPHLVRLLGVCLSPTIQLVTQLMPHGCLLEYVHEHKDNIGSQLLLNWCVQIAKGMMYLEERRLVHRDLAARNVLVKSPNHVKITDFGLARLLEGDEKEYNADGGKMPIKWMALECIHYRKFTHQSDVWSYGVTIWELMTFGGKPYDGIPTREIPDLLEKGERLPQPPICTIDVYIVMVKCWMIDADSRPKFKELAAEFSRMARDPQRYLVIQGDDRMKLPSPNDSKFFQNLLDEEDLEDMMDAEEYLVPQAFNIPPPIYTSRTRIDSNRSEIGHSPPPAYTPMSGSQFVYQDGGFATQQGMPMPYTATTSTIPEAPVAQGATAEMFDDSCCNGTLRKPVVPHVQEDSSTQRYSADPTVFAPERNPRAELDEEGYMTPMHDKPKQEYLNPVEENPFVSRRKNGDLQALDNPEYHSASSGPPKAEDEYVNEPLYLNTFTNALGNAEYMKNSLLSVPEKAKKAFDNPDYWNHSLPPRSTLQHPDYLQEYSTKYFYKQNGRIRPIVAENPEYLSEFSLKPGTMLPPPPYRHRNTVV
Lab note: write the figure by itself, no unit.

The reported value for huNRG1(S177-Q237)(1A12)::GG::huFcSEFL2 (Pb) (Fc fusion) SHLVKCAEKHKSFCVNGGECYVVERPSIPSRYLCKCPNEFTGDRCQKFFMASFYKAEELYQGGDKTHTCPPCPAPELLGGPSVFLFPPKPKDTLMISRTPEVTCVVVDVSHEDPEVKFNWYVDGVEVHNAKTKPCEEQYGSTYRCVSVLTVLHQDWLNGKEYKCKVSNKALPAPIEKTISKAKGQPREPQVYTLPPSREEMTKNQVSLTCLVKGFYPSDIAVEWESNGQPENNYKTTPPVLDSDGSFFLYSKLTVDKSRWQQGNVFSCSVMHEALHNHYTQKSLSLSPGK in terms of Selectivity SC/CM is 66

The reported value for huNRG1(S177-Q237)(v80.3)::GG::huFcSEFL2 (Pb) (Fc fusion) SHLVKCAERHKSFCVNGGECFVIEGSSIPSRYLCKCPNEFTGDRCEKDVMASFYKAEELYQGGDKTHTCPPCPAPELLGGPSVFLFPPKPKDTLMISRTPEVTCVVVDVSHEDPEVKFNWYVDGVEVHNAKTKPCEEQYGSTYRCVSVLTVLHQDWLNGKEYKCKVSNKALPAPIEKTISKAKGQPREPQVYTLPPSREEMTKNQVSLTCLVKGFYPSDIAVEWESNGQPENNYKTTPPVLDSDGSFFLYSKLTVDKSRWQQGNVFSCSVMHEALHNHYTQKSLSLSPGK in terms of Selectivity SC/CM is 89
